This collection of values is drawn from ChEMBL document CHEMBL1275299.

TEST SUMMARY: Antiinflammatory activity in Swiss albino mouse macrophage assessed as inhibition of LPS-induced IL-6 production at 10 ug/ml treated 30 mins before LPS challenge measured after 24 hrs by ELISA
Type: functional

{"COMPOUND": "COc1cc([C@H]2Oc3c(OC)c(Br)c4ccc(=O)oc4c3O[C@@H]2COC(C)=O)ccc1O", "UNIT SPEC": "%", "inhibition at 10 µg/mL": 52.5}
{"COMPOUND": "COc1cc([C@H]2Oc3c(OC)cc4ccc(=O)oc4c3O[C@@H]2COC(C)=O)ccc1O [DURANTIN A]", "UNIT SPEC": "%", "inhibition at 10 µg/mL": 78.3}
{"COMPOUND": "COc1ccc([C@H]2Oc3c(OC)c(Br)c4ccc(=O)oc4c3O[C@@H]2CO)cc1OC", "UNIT SPEC": "%", "inhibition at 10 µg/mL": 60}
{"COMPOUND": "COc1cc([C@H]2Oc3c(OC)c([N+](=O)[O-])c4ccc(=O)oc4c3O[C@@H]2CO)c([N+](=O)[O-])cc1OC", "UNIT SPEC": "%", "inhibition at 10 µg/mL": 80.2}
{"COMPOUND": "COc1ccc([C@H]2Oc3c(OC)c(Cl)c4ccc(=O)oc4c3O[C@@H]2CO)cc1OC", "UNIT SPEC": "%", "inhibition at 10 µg/mL": 56.2}
{"COMPOUND": "COc1cc([C@H]2Oc3c(OC)c([N+](=O)[O-])c4ccc(=O)oc4c3O[C@@H]2CO[N+](=O)[O-])c([N+](=O)[O-])cc1OC", "UNIT SPEC": "%", "inhibition at 10 µg/mL": 79}
{"COMPOUND": "COc1cc([C@H]2Oc3c(OC)c([N+](=O)[O-])c4ccc(=O)oc4c3O[C@@H]2COC(C)=O)ccc1OC(C)=O", "UNIT SPEC": "%", "inhibition at 10 µg/mL": 82}
